Recorded Ki values for a group of compounds are listed next.
TEST_SYSTEM: Sodium-dependent serotonin transporter (Homo sapiens, UniProt P31645)
Sequence (P31645 whole entry): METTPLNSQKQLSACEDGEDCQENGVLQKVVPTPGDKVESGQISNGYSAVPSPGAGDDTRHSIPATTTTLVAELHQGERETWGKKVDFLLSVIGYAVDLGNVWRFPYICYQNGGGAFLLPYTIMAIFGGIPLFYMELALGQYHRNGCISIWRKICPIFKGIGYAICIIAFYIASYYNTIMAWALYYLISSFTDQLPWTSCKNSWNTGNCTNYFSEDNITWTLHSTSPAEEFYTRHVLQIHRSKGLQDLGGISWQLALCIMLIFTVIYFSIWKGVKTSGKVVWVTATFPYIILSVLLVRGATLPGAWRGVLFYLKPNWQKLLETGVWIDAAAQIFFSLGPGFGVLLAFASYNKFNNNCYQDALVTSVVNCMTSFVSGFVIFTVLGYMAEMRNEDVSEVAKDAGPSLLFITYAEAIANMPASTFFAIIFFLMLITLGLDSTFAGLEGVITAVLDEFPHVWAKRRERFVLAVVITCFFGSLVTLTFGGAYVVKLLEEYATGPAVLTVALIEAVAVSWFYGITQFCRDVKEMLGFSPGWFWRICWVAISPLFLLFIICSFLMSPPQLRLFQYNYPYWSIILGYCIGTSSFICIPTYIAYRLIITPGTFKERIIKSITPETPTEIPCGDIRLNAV
EXPERIMENT: Inhibition constant against [3H]citalopram in murine kidney cells transfected with human serotonin transporter.

| COMPOUND | TEST_SYSTEM | Ki |
| --- | --- | --- |
| C[C@@H](CF)OC(=O)C1C(c2ccc(Cl)cc2)CC2CCC1N2C (some centres not stated) | Sodium-dependent serotonin transporter (Homo sapiens, UniProt P31645) | 85 nM |

We now examine a further compound.
Observed Ki on Sodium-dependent serotonin transporter (Homo sapiens, UniProt P31645) for C[C@H](CF)OC(=O)C1C(c2ccc(Cl)cc2)CC2CCC1N2C (some centres not stated) , please.
64 nM

* * *

TEST_SYSTEM: Sodium-dependent serotonin transporter (Rattus norvegicus)
Sequence (P31652 whole entry): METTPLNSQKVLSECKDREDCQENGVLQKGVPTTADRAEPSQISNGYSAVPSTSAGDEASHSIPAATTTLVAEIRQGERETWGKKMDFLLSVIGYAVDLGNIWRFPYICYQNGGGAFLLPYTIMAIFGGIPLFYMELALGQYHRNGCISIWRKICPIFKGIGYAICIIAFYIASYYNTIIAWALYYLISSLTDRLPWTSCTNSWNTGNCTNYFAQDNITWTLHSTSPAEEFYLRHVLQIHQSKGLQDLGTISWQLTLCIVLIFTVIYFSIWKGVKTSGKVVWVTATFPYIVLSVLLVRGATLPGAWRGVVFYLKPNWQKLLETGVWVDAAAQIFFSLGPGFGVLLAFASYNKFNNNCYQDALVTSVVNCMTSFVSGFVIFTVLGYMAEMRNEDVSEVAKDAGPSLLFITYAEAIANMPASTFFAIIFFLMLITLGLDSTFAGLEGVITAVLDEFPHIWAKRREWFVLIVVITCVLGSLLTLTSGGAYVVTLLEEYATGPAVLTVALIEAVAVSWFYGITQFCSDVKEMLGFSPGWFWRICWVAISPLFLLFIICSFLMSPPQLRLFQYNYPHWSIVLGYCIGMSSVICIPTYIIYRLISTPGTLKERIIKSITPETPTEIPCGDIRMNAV
EXPERIMENT: Inhibition constant in rat serotonin transporter.
QUANTITY_MEASURED: pKi
Lab note — pKi values are minus log10 of concentrations in M.

| MOLECULE | TEST_SYSTEM | pKi |
| --- | --- | --- |
| C[C@@H](CF)OC(=O)C1C(c2ccc(Cl)cc2)CC2CCC1N2C (some centres not stated) | Sodium-dependent serotonin transporter (Rattus norvegicus) | 6.86 |

I would be grateful if you could share the reported pKi for C[C@H](CF)OC(=O)C1C(c2ccc(Cl)cc2)CC2CCC1N2C (some centres not stated) .
6.88

* * *

Recorded pKi values for a group of compounds are listed next.
TEST_SYSTEM: Sodium-dependent dopamine transporter (Homo sapiens, UniProt Q01959)
Sequence (Q01959 whole entry): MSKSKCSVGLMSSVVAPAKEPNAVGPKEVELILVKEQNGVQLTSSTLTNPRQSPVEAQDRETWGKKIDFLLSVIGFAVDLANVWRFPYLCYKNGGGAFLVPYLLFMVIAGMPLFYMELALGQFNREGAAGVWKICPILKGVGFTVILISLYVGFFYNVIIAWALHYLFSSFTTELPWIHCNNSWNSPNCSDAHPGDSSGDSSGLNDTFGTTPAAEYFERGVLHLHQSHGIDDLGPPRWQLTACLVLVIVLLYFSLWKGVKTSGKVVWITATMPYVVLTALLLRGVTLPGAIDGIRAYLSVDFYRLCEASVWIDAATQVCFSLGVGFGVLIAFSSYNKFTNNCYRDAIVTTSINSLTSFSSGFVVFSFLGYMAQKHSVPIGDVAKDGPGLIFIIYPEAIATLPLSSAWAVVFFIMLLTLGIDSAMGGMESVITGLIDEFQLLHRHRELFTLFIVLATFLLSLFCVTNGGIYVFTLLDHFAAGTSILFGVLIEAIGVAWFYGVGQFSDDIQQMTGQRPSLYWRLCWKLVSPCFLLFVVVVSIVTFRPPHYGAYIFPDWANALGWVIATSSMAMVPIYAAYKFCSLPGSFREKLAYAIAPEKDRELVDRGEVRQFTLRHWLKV
EXPERIMENT: Inhibition constant against [N-methyl-3H]WIN-35428 in murine kidney cells transfected with human dopamine transporter.
Lab note — pKi values are minus log10 of concentrations in M.

I would be grateful if you could share the reported pKi for C[C@@H](CF)OC(=O)C1C(c2ccc(Cl)cc2)CC2CCC1N2C (some centres not stated) .
9.17

I would be grateful if you could share the reported pKi for C[C@H](CF)OC(=O)C1C(c2ccc(Cl)cc2)CC2CCC1N2C (some centres not stated) .
8.49
